Consider the following MIC values measured on S. gordonii NCTC 7870.

// input: 3 compounds below; output: MIC for each
1. Cc1ccccc1-c1cc(-c2ccccn2)nc(N[C@@H]2O[C@H](CO)[C@@H](O)[C@H](O)[C@H]2O)n1 [Compound 1]
2. CC(=O)OC[C@H]1O[C@@H](Nc2nc(-c3cccnc3)cc(-c3cccc(C)c3)n2)[C@H](OC(C)=O)[C@@H](OC(C)=O)[C@@H]1OC(C)=O [Compound 14]
3. CC(=O)OC[C@H]1O[C@@H](Nc2nc(-c3ccncc3)cc(-c3ccccc3C)n2)[C@H](OC(C)=O)[C@@H](OC(C)=O)[C@@H]1OC(C)=O [Compound 12]

Response:
1. 250 µg/mL
2. > 1000 µg/mL
3. > 1000 µg/mL

* * *

Assignment: determine reported cytotoxicity at 24 h, 75 μg/mL for the given compounds.
Procedure Summary: LDH cytotoxic activity assay, HT29
Assay type: cell-based
Cond: human, HT29 cells, HT29, 75 μg/mL
Answers are plain numbers, in %.

| Compound | Units Symbol | cytotoxicity at 24 h, 75 μg/mL |
| --- | --- | --- |
| CC(=O)OC[C@H]1O[C@@H](Nc2nc(-c3cccc(C)c3)cc(-c3ccccn3)n2)[C@H](OC(C)=O)[C@@H](OC(C)=O)[C@@H]1OC(C)=O [Compound 13] | % | 66.4 |
| Cc1ccc(-c2cc(-c3cccnc3)nc(N[C@@H]3O[C@H](CO)[C@@H](O)[C@H](O)[C@H]3O)n2)cc1 [Compound 8] | % | 75.8 |

Request: Bench note: what cytotoxicity at 24 h, 75 μg/mL did Cc1ccccc1-c1cc(-c2ccccn2)nc(N[C@@H]2O[C@H](CO)[C@@H](O)[C@H](O)[C@H]2O)n1 [Compound 1] show?
Response: 68.9

* * *

Procedure Summary: LDH cytotoxic activity assay, FL
Type: cell-based
Cond: human, FL cells (normal cells), FL, 100 μg/mL
Exercise: for every item that follows, state its recorded cytotoxicity at 24 h, 100 μg/mL.
Answer format: value, then unit.

Worked cases, cytotoxicity at 24 h, 100 μg/mL given:
| Chemical Structure | cytotoxicity at 24 h, 100 μg/mL |
| --- | --- |
| Cc1ccc(-c2cc(-c3cccnc3)nc(N[C@@H]3O[C@H](CO)[C@@H](O)[C@H](O)[C@H]3O)n2)cc1 | 69.9% |
| Cc1ccc(-c2cc(-c3ccncc3)nc(N[C@@H]3O[C@H](CO)[C@@H](O)[C@H](O)[C@H]3O)n2)cc1 | 71% |
| Cc1cccc(-c2cc(-c3cccnc3)nc(N[C@@H]3O[C@H](CO)[C@@H](O)[C@H](O)[C@H]3O)n2)c1 | 76.8% |
| Cc1cccc(-c2cc(-c3ccncc3)nc(N[C@@H]3O[C@H](CO)[C@@H](O)[C@H](O)[C@H]3O)n2)c1 | 63.4% |
| Cc1cccc(-c2cc(-c3ccccn3)nc(N[C@@H]3O[C@H](CO)[C@@H](O)[C@H](O)[C@H]3O)n2)c1 | 69.5% |

// moving on: another record for cytotoxicity at 24 h, 100 μg/mL
Request: What value of cytotoxicity at 24 h, 100 μg/mL has been reported for the following molecule? Cc1ccc(-c2cc(-c3ccccn3)nc(N[C@@H]3O[C@H](CO)[C@@H](O)[C@H](O)[C@H]3O)n2)cc1
Response: 73.2%
